This listing pairs binders with measured pKd.
Molecular target: Fibrinogen (Homo sapiens, UniProt P02671-2;P02675;P02679-2 P02671-2:20-644,P02675:31-491,P02679-2:27-437)
Sequence (P02671 other isoform, or with tags, fused parts or gaps, chain 1 of 3): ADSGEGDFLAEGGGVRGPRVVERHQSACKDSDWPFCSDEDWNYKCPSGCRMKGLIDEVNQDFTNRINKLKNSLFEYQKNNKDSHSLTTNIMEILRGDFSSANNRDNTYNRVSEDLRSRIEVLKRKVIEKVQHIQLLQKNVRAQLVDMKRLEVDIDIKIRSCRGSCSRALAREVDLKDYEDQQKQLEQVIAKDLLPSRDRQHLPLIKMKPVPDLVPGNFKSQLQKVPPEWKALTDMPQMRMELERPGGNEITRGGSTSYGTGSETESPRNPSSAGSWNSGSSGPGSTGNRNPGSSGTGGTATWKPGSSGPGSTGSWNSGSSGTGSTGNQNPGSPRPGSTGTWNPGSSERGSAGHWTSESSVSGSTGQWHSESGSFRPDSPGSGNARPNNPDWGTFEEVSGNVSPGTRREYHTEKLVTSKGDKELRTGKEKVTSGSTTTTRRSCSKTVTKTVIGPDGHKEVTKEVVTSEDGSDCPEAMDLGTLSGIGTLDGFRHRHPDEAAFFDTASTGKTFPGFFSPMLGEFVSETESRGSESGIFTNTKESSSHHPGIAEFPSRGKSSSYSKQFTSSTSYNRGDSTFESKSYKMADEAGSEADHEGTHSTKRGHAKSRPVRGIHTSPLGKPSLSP
Sequence (P02675 31-491, chain 2 of 3): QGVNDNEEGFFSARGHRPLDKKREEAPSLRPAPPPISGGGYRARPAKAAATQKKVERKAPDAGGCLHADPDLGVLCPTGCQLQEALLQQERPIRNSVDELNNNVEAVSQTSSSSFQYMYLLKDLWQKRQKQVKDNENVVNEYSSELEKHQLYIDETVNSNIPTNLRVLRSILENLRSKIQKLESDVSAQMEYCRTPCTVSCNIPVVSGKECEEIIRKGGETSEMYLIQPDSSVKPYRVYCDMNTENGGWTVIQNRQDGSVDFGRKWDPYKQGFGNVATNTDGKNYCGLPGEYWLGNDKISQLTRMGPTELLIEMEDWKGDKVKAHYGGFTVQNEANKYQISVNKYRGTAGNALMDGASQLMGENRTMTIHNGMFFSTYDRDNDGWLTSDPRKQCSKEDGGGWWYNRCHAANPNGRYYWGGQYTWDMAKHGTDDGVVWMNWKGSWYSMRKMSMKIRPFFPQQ
Sequence (P02679 other isoform, or with tags, fused parts or gaps, chain 3 of 3): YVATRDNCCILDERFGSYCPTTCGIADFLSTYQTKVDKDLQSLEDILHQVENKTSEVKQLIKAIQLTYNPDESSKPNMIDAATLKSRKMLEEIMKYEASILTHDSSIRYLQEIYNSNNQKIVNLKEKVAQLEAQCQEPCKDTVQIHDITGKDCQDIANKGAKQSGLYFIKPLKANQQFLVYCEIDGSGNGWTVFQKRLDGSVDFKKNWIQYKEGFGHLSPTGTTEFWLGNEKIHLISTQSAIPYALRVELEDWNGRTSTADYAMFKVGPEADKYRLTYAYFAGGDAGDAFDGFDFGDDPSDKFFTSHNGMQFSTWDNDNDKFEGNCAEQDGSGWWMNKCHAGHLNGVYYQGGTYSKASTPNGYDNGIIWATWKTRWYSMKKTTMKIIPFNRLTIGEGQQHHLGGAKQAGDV
Assay: filter; high class; printed l mM, probably uM
Conditions: chain copies: 2
pKd: −log10 of the molar value.

Sample answers from the record:
Binder: FC70 (ssRNA, 2'-F pyrimidines) RNA: GGGAGAUAAGAAUAAACGCUCAAGUGUUGGAGCUCUUGAUUGGAAAAGUAGAGCAAAACGAAAUUCGACAGGAGGCUCACAACAGGC
Measurement Kind: pKd
Value Observed: > 6.00

Binder: FCN28 (ssRNA, 2'-F pyrimidines) RNA: GGGAGAUAAGAAUAAACGCUCAAUGGGCUACAUGUGAGUACACCAGCGUGAGAGUUCUUAGGUUCGACAGGAGGCUCACAACAGGC
Measurement Kind: pKd
Value Observed: > 6.00

// next item, pKd requested
Q) // query pKd value for entry FC74 (ssRNA, 2'-F pyrimidines) RNA: GGGAGAUAAGAAUAAACGCUCAAGUGUUGGAGCUCUUGAUUGGAAAAGUAGAGCAAAUCGAAAUUCGACAGGAGGCUCACAACAGGC
A) > 6.00
